- System: human prostate tumor xenografts (22Rv1 cells)
- Experimental Details: Tissue biodistribution and tumor-to-tissue fluorescence ratio of DUPA-NIR conjugates, IVIS imaging
- Type: in vivo, mice
- Condition Label: 2 h after tail vein injection
Endpoint Label: tumor-to-background ratio (TBR), in words

[
  {
    "Compound": "CC1(C)C(=CC=C2CCCC(C=CC3=[N+](CCCCS(=O)(=O)[O-])c4ccc(S(=O)(=O)O)cc4C3(C)C)=C2Oc2ccc(CC(NC(=O)CC(NC(=O)C(Cc3ccccc3)NC(=O)C(Cc3ccccc3)NC(=O)CCCCCCCNC(=O)CCC(NC(=O)NC(CCC(=O)O)C(=O)O)C(=O)O)C(=O)O)C(=O)O)cc2)N(CCCCS(=O)(=O)O)c2ccc(S(=O)(=O)O)cc21 (stereo not drawn) [Compound 49]",
    "Result": "good"
  }
]
